Attribution: PubChem BioAssay AID1963842

Field: viability, T/C. Provide a value for each of the compounds that follow.
# Tested on: 677734-321-R-J1-PDC complex spheroid viability
# assay.remarks: Anticancer human tumor 677734-321-R-J1-PDC patient-derived soft tissue sarcoma cell line growth inhibition [POLQ]
# assay.setup: second compound 10 µM; first compound 0.0316 µM; hits give low values

Past entries and their recorded results:
C=CCn1c(=O)c2cnc(Nc3ccc(N4CCN(C)CC4)cc3)nc2n1-c1cccc(C(C)(C)O)n1 + COC1C(OC(N)=O)C(O)C(Oc2ccc3c(O)c(NC(=O)c4ccc(O)c(CC=C(C)C)c4)c(=O)oc3c2C)OC1(C)C ... 102%
COc1ccc([C@@H](O)c2cc(-c3ncnc4cc(N5CCOCC5)ccc34)c(F)cc2Cl)nn1 + Nc1ccc(C#CCN(C(=O)Cc2ncc(C(F)(F)F)cc2C(F)(F)F)c2ccc(F)cc2)nn1 ... 102%
C=CC(=O)N1CCN(c2nc(=O)n(-c3c(C)ccnc3C(C)C)c3nc(-c4c(O)cccc4F)c(F)cc23)C(C)C1 (centres undefined) + COC1C(OC(N)=O)C(O)C(Oc2ccc3c(O)c(NC(=O)c4ccc(O)c(CC=C(C)C)c4)c(=O)oc3c2C)OC1(C)C ... 107%

In plain terms, CC(C)n1c(=O)n(C)c2cnc3cc(F)c(-c4ccc(OCCCN5CCCCC5)nc4)cc3c21 + Nc1ccc(C#CCN(C(=O)Cc2ncc(C(F)(F)F)cc2C(F)(F)F)c2ccc(F)cc2)nn1 has a documented viability, T/C of 85.3%

====

# Test system: 677734-321-R-J1-PDC complex spheroid viability
# assay.remarks: Anticancer human tumor 677734-321-R-J1-PDC cell line growth inhibition [POLQ];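 also: spheroids exposed to compounds for one week; 100% = vehicle DMSO treated spheroids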
# assay.setup: second compound 10 µM; first compound 0.0316 µM; hits give low values
attribute.measured: viability, T/C (%)
Numbers only, in %.

Past entries and their recorded results:
CC1COCCN1c1cc(C2(O)CC3CCC(C2)O3)c2cnn(-c3ccn[nH]3)c2n1 (stereo not given) + Nc1ccc(C#CCN(C(=O)Cc2ncc(C(F)(F)F)cc2C(F)(F)F)c2ccc(F)cc2)nn1 ... 35.5
CNCc1ccc(-c2[nH]c3cc(F)cc4c3c2CCNC4=O)cc1 + Cc1cccc(N(C)C(=O)C2C(O)CCN2c2nc(C)cc(C(F)(F)F)c2C#N)c1 ... 109
CCCS(=O)(=O)Nc1ccc(F)c(C(=O)c2c[nH]c3ncc(-c4ccc(Cl)cc4)cc23)c1F + Nc1ccc(C#CCN(C(=O)Cc2ncc(C(F)(F)F)cc2C(F)(F)F)c2ccc(F)cc2)nn1 ... 96.8
O=C(c1cc(Cc2n[nH]c(=O)c3ccccc23)ccc1F)N1CCN(C(=O)C2CC2)CC1 + Cc1cccc(N(C)C(=O)C2C(O)CCN2c2nc(C)cc(C(F)(F)F)c2C#N)c1 ... 99.8

Lab note: next compound to report on.
In plain terms, COc1cc(C2c3cc4c(cc3C(OC3OC5COC(C)OC5C(O)C3O)C3COC(=O)C23)OCO4)cc(OC)c1O (stereo not given) + Nc1ccc(C#CCN(C(=O)Cc2ncc(C(F)(F)F)cc2C(F)(F)F)c2ccc(F)cc2)nn1 has a documented viability, T/C of 108

====

# Tested on: 677734-321-R-J1-PDC complex spheroid viability
# assay.remarks: Anticancer human tumor 677734-321-R-J1-PDC cell line growth inhibition [POLQ]; active = viability on the fitted dose curve at most 10% of control; inactive = the rest;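 also: spheroids exposed to compounds for one week; 100% = vehicle DMSO treated spheroids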
# assay.setup: second compound 0.1 µM; first compound 10 µM
Return exactly one item of True = active, False = inactive

CC1COCCN1c1cc(C2(S(C)(=N)=O)CC2)nc(-c2ccnc3[nH]ccc23)n1 (stereo not drawn) + Nc1ccc(C#CCN(C(=O)Cc2ncc(C(F)(F)F)cc2C(F)(F)F)c2ccc(F)cc2)nn1 ... True
C=CC(=O)N1CCN(c2nc(=O)n(-c3c(C)ccnc3C(C)C)c3nc(-c4c(O)cccc4F)c(F)cc23)C(C)C1 (stereo not drawn) + Cc1cccc(N(C)C(=O)C2C(O)CCN2c2nc(C)cc(C(F)(F)F)c2C#N)c1 ... False
CC1COCCN1c1cc(-c2ccnn2C)c2ccnc(-c3ccn[nH]3)c2n1 (stereo not drawn) + COC1C(OC(N)=O)C(O)C(Oc2ccc3c(O)c(NC(=O)c4ccc(O)c(CC=C(C)C)c4)c(=O)oc3c2C)OC1(C)C ... False
COc1ccc([C@@H](O)c2cc(-c3ncnc4cc(N5CCOCC5)ccc34)c(F)cc2Cl)nn1 + Cc1cccc(N(C)C(=O)C2C(O)CCN2c2nc(C)cc(C(F)(F)F)c2C#N)c1 ... False
COc1cc(C2c3cc4c(cc3C(OC3OC5COC(C)OC5C(O)C3O)C3COC(=O)C23)OCO4)cc(OC)c1O (stereo not drawn) + Nc1ccc(C#CCN(C(=O)Cc2ncc(C(F)(F)F)cc2C(F)(F)F)c2ccc(F)cc2)nn1 ... True

What call does the record list for COc1cccc2c1C(=O)c1c(O)c3c(c(O)c1C2=O)CC(O)(C(=O)CO)CC3OC1CC(N)C(O)C(C)O1 (stereo not drawn) + Nc1ccc(C#CCN(C(=O)Cc2ncc(C(F)(F)F)cc2C(F)(F)F)c2ccc(F)cc2)nn1 ? True

What call does the record list for CC1COCCN1c1cc(C2(O)CC3CCC(C2)O3)c2cnn(-c3ccn[nH]3)c2n1 (stereo not drawn) + Nc1ccc(C#CCN(C(=O)Cc2ncc(C(F)(F)F)cc2C(F)(F)F)c2ccc(F)cc2)nn1 ? True

What call does the record list for CNCc1ccc(-c2[nH]c3cc(F)cc4c3c2CCNC4=O)cc1 + Nc1ccc(C#CCN(C(=O)Cc2ncc(C(F)(F)F)cc2C(F)(F)F)c2ccc(F)cc2)nn1 ? False
